System: A-427
Experiment: relative viability (nuclei count vs DMSO), 5 days (fraction); higher = more cells survive
Conditions: first compound 5 µM
measuredParameter: relative viability
Hey, just send me the number, nothing else.

Param item: O=C(O)CCCCC(CCSCc1ccccc1)SCc1ccccc1 (stereo unspecified) [CPI-613] + CC(=O)Nc1cccc(-n2c(=O)n(C3CC3)c(=O)c3c(Nc4ccc(I)cc4F)n(C)c(=O)c(C)c32)c1 [Trametinib] (partner 0.02 µM) ; param system: A-427; output relative viability: 0.716

Param item: O=C(O)CCCCC(CCSCc1ccccc1)SCc1ccccc1 (stereo unspecified) [CPI-613] + CS(=O)(=O)CCNCc1ccc(-c2ccc3ncnc(Nc4ccc(OCc5cccc(F)c5)c(Cl)c4)c3c2)o1 [Lapatinib] (partner 2 µM) ; param system: A-427; output relative viability: 0.974

Param item: O=C(O)CCCCC(CCSCc1ccccc1)SCc1ccccc1 (stereo unspecified) [CPI-613] + COc1cccc2cc(-c3nc([C@H]4CC[C@H](C(=O)O)CC4)n4ncnc(N)c34)[nH]c12 [OSI-027] (partner 0.5 µM) ; param system: A-427; output relative viability: 0.416

Param item: O=C(O)CCCCC(CCSCc1ccccc1)SCc1ccccc1 (stereo unspecified) [CPI-613] + Cc1nc(NC(=O)N2CCC[C@H]2C(N)=O)sc1-c1ccnc(C(C)(C)C(F)(F)F)c1 [Alpelisib] (partner 2 µM) ; param system: A-427; output relative viability: 1.02

Param item: O=C(O)CCCCC(CCSCc1ccccc1)SCc1ccccc1 (stereo unspecified) [CPI-613] + NC(=O)Nc1cc(-c2cccc(F)c2)sc1C(=O)N[C@H]1CCCNC1 [AZD7762] (partner 0.2 µM) ; param system: A-427; output relative viability: 0.66

Param item: O=C(O)CCCCC(CCSCc1ccccc1)SCc1ccccc1 (stereo unspecified) [CPI-613] + C[C@]1(O)C[C@@H](c2nc(-c3ccc4ccc(-c5ccccc5)nc4c3)c3c(N)nccn32)C1 [Linsitinib] (partner 1 µM) ; param system: A-427; output relative viability: 1.1
